Reported EC50 (nM) in the Presence of 1 µg/mL hIL-18BP-hFc, PBMC assay (hIFNγ release) values for the following binders.
# MEASUREMENT TARGET: T1, hIL-18BP-hFc (human, UniProt O95998 31-194, limits assumed)
# T1 sequence (looked up): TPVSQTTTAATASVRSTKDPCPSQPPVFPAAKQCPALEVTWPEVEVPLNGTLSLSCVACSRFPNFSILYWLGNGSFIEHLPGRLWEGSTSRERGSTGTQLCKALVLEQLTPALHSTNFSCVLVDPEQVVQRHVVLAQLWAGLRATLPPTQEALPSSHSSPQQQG
# TEST DETAILS: cell-based or functional assay
The figure you give is taken to be in nM; do not add the unit.

Study these solved cases before continuing.
Q: Fill in: EC50 (nM) in the Presence of 1 µg/mL hIL-18BP-hFc, PBMC assay (hIFNγ release) of IL-18 variant polypeptide M21 (ligand) YFPKLRSKLSVIRNLNDQVLFIDQGNRPLFEDMTDSDCRDNAPRTIFIISMYKSSSTRGMAVTISVKCEKISTLSCENKIISFKEMNPPDGIKDTKSDIIFFQSSVPGHDNKMQFESSSYEGYFLACEKERDLFKLILKKEDELGDRSIMFTVQNED is ___
Ans: 0.049

Q: Try IL-18 variant polypeptide M17 (ligand) YFPKLRSKLSVIRNLNDQVLFIDQGNRPLFEDMTDSDCRDNAPRTIFIISMYKLSTARGMAVTISVKCEKISTLSCENKIISFKEMNPPDGIKDTKSDIIFFQRSVPGHDNKMQFESSSYEGYFLACEKERDLFKLILKKEDELGDRSIMFTVQNED next.
Ans: 0.13

Q: Same lookup for IL-18 variant polypeptide M35 (ligand) YFPKLRSKLSVIRNLNDQVLFIDQGNRPLFEDMTDSDCRDNAPRTIFIISMYKGSGARGMAVTISVKCEKISTLSCENKIISFKEMNPPDGIKDTKSDIIFFQRSVPGHDNKMQFESSSYEGYFLACEKERDLFKLILKKEDELGDRSIMFTVQNED , please.
Ans: 0.14

Query binder follows.
Q: What value of measured EC50 (nM) in the Presence of 1 µg/mL hIL-18BP-hFc, PBMC assay (hIFNγ release) is listed for IL-18 variant polypeptide M33 (ligand) YFEKLHSKLSVIRNLNDQVLFIDQGNRPLFEDMTDSDCRDNAPRTIFIISMYKRSTHRGMAVTISVKCEKISTLSCENKIISFKEMNPPDNIKDTKSDIIFFQRSVPGHDNKMQFESSSYEGYFLACEKERDLFKLILKKEDELGDRSIMFTVQNED ?
Ans: 0.35
